Origin of the recorded values: patent US20220380463A1

target: cynomolgus CD3εδ Fc heterodimer (Cy CD3ε Fc / CD3δ Fc-HIS) (cynomolgus) (UniProt Q95LI8); test: BLI (ForteBio), pH 6.0
Sequence (chain, as listed by the source mutant, chain 1 of 2): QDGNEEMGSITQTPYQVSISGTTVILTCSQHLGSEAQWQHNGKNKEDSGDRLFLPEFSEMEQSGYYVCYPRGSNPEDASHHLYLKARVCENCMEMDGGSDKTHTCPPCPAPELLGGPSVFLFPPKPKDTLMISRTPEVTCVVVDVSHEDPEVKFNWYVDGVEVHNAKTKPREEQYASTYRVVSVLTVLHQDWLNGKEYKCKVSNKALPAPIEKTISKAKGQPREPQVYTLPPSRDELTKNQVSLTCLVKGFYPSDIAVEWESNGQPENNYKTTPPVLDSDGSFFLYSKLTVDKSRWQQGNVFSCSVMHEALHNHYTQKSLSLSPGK
Sequence (Q95LI8 22-100, stated change not applied, chain 2 of 2): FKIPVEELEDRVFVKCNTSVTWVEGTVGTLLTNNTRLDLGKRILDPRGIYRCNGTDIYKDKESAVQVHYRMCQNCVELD
Exercise: for every item that follows, state its recorded log10 Kd.
A value of 2 here means Kd of 100 in nM, since values are log10.

# example entries with known answers
>>> observed("SAD10320_P02_D06 (antibody, V domains shown) VH: QVQLVQSGAEVKKPGASVKVSCKASGFNIKDYYMHWVRQAPGQRPAWMGWIDLENANTIYDAKFQGRVTITRDTSASTAYMELSSLRSEDTAVYYCARDAYGHGFYDVWGQGTLVTVSS VL: DIVMTQSPDSLAVSLGERATINCKSSQSLLNARTGKNYLAWYQQKPGQPPKLLIYWASTRESGVPDRFSGSGSGTDFTLTISSLQAEDVAVYYCKQSYGHRTFGGGTKVEIK")
1.37
>>> observed("SAD10320_P04_D12 (antibody, V domains shown) VH: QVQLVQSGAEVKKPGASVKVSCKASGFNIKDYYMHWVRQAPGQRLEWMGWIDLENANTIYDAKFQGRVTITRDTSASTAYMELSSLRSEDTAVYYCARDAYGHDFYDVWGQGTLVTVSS VL: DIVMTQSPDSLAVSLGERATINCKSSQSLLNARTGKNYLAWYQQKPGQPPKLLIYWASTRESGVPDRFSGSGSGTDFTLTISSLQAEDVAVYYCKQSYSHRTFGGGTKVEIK")
1.14

For every item below, please supply its log10 Kd.
1. SAD10320_P03_C08 (antibody, V domains shown) VH: QVQLVQSGAEVKKPGASVKVSCEASGFNIKDYYMHWVRQAPGQTLAWMGWIDLENANTIYDAKFQGRVTITRDTSASTAYMELSSLRSEDTAVYYCARDAYGHVFYDVWGQGTLVTVSS VL: DIVMTQSPDSLAVSLGERATINCKSSQSLLNARTGKNYLAWYQQKPGQPPKLLIYWASTRESGVPDRFSGSGSGTDFTLTISSLQAEDVAVYYCKQSYLHRTFGGGTKVEIK
2. SAD10320_P03_F08 (antibody, V domains shown) VH: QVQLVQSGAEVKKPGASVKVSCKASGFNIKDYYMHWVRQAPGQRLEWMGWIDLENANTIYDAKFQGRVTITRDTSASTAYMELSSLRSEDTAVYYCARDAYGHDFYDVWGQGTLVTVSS VL: DIVMTQSPDSLAVSLGERATINCKSSQSLLNARPGKNYLAWYQQKPGQPPKLLIYWASTRESGVPDRFSGSGSGTDFTLTISSLQAEDVAVYYCKQSYSRRTFGGGTKVEIK
3. SAD10320_P04_E11 (antibody, V domains shown) VH: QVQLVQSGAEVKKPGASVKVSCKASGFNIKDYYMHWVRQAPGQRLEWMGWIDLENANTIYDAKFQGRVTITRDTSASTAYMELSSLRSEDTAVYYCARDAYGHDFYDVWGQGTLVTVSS VL: DIVMTQSPDSLAVSLGERATINCKSSQSLLNARTGKNYLAWYQQKPGQPPKLLIYWASTRESGVPDRFSGSGSGTDFTLTISSLQAEDVAVYYCKQSYGHRTFGGGTKVEIK
4. SAD10320_P03_D08 (antibody, V domains shown) VH: QVQLVQSGAEVKKPGASVKVSCKASGFNIKDYYMHWVRQAPGQRLEWMGWIDLENANTIYDAKFQGRVTITRDTSASTAYMELSSLRSEDTAVYYCARDAYGHQFYDVWGQGTLVTVSS VL: DIVMTQSPDSLAVSLGERATINCKSSQSLLNARTGKNYLAWYQQKPGQPPKLLIYWASTRESGVPDRFSGSGSGTDFTLTISSLQAEDVAVYYCKQSYHTRTFGGGTKVEIK
5. SAD10320_P03_H08 (antibody, V domains shown) VH: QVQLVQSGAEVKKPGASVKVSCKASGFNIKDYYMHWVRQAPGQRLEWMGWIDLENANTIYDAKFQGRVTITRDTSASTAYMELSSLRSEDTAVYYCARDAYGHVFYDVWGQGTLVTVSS VL: DIVMTQSPDSLAVSLGERATINCKSSQSLLNASTAKNYLAWYQQKPGQPPKLLIYWASTRESGVPDRFSGSGSGTDFTLTISSLQAEDVAVYYCKQSYRHRTFGGGTKVEIK
6. SAD10320_P02_A06 (antibody, V domains shown) VH: QVQLVQSGAEVKKPGASVKVSCKASGFNIKDYYMHWVRQAPGQRLPWMGWIDLENANTIYDAKFQGRVTITRDTSASTAYMELSSLRSEDTAVYYCARDAHERYFYDVWGQGTLVTVSS VL: DIVMTQSPDSLAVSLGERATINCKSSQSLLNARTGKNYLAWYQQKPGQPPKLLIYWASTRESGVPDRFSGSGSGTDFTLTISSLQAEDVAVYYCKQSHLRRTFGGGTKVEIK
7. SAD10320_P03_C09 (antibody, V domains shown) VH: QVQLVQSGAEVKKPGASVKVSCEASGFNIKDYYMHWVRQAPGQRLEWMGWIDLENANTIYDAKFQGRVTITRDTSASTAYMELSSLRSEDTAVYYCARDAYGHVFYDVWGQGTLVTVSS VL: DIVMTQSPDSLAVSLGERATINCKSSQSLLNARTGKNYLAWYQQKPGQPPKLLIYWASTRESGVPDRFSGSGSGTDFTLTISSLQAEDVAVYYCKQSYLHRTFGGGTKVEIK

1: 2.51; 2: 1.18; 3: 1.30; 4: 0.89; 5: 2.26; 6: 1.06; 7: 1.50

I have this binder here, SAD10320_P02_H06 (antibody, V domains shown) VH: QVQLVQSGAEVKKPGASVKVSCKASGFNIKDYYMHWVRQAPGQRLEWMGWIDLENANTIYDAKFQGRVTITRDTSASTAYMELSSLRSEDTAVYYCARDAYGRNHYDVWGQGTLVTVSS VL: DIVMTQSPDSLAVSLGERATINCKSSQSLLNARTGKSYLAWYQQKPGQPPKLLIYWASTRESGVPDRFSGSGSGTDFTLTISSLQAEDVAVYYCKQSYVHRTFGGGTKVEIK , and I need its recorded log10 Kd.
1.02
